- Tested on: Fibroblast
- experiment: Multiplex assay against human fibroblast
- Type: toxicity, cell-based
- experimentalSetup: 12 h, 1 µM, compound concentration 1 uM, replicate 2
I'd be grateful if you could share measured Population Membrane Permeable-Phenotype (%) for these entries.
One number for each entry, in %.

Answered examples (5):
| molecule | systemTested | reportedMeasurement |
| --- | --- | --- |
| N#Cc1cc(F)cc(-c2nc(-c3ccc(F)cn3)no2)c1 | Fibroblast | 15 |
| CCCCC1=NC2(CCCC2)C(=O)N1Cc1ccc(-c2ccccc2-c2nnn[nH]2)cc1 [IRBESARTAN] | Fibroblast | 7 |
| CC(C)c1noc(N2CCC(COc3ccc(-c4ccc(S(C)(=O)=O)cc4)nc3)CC2)n1 [GSK-1292263] | Fibroblast | 4 |
| NCCc1cn(S(=O)(=O)c2c(Cl)nc3sccn23)c2ccccc12.O=C(O)C(=O)O | Fibroblast | 13 |
| COC[C@@H](c1ccc(C(F)(F)F)cc1)N1CCN(C2(C)CCN(C(=O)c3c(C)ncnc3C)CC2)C[C@@H]1C.O=C(O)/C=C\C(=O)O [VICRIVIROC MALEATE] | Fibroblast | 5 |

Consider the following items and state reported Population Membrane Permeable-Phenotype (%) for each.
1. CCCCCC(O)/C=C/[C@H]1C(=O)CC(O)C1C/C=C\CCCC(=O)O (some centres undefined)
2. CC(C)(C)c1cc(NC(=O)Nc2ccc(-c3cn4c(n3)sc3cc(OCCN5CCOCC5)ccc34)cc2)no1 [QUIZARTINIB]
3. Cc1sc2c(c1C)C(c1ccc(Cl)cc1)=N[C@@H](CC(=O)NCCCCCCCCNC(=O)COc1cccc3c1C(=O)N(C1CCC(=O)NC1=O)C3=O)c1nnc(C)n1-2 (some centres undefined)
4. CN(C)C(=O)Cn1cc(-c2ccc(-c3cncc4ccccc34)cc2)cn1

1: 7; 2: 1; 3: 23; 4: 5

---

- Test system: Fibroblast
- experiment: Multiplex assay against human fibroblast
- Format: toxicity, cell-based
- experimentalSetup: 12 h, 1 µM, compound concentration 1 uM, replicate 1
Assign Population Fragmented Nuclei (%) to each entry below.
Hi, when you answer, please include the unit after the number. Thanks!

Examples with answers:
| compound | systemTested | resultType | reportedMeasurement |
| --- | --- | --- | --- |
| CN(C)C(=O)Cn1cc(-c2ccc(-c3cncc4ccccc34)cc2)cn1 | Fibroblast | Population Fragmented Nuclei (%) | 10% |
| Cl.NCCc1ccc(O)c(O)c1 [DOPAMINE HYDROCHLORIDE] | Fibroblast | Population Fragmented Nuclei (%) | 13% |
| CC(C)COc1ccc(CNC(=O)N(Cc2ccc(F)cc2)C2CCN(C)CC2)cc1 [PIMAVANSERIN] | Fibroblast | Population Fragmented Nuclei (%) | 24% |
| N#Cc1cc(F)cc(-c2nc(-c3ccc(F)cn3)no2)c1 | Fibroblast | Population Fragmented Nuclei (%) | 21% |
| CN1CCN(c2cc(-c3ccccc3)nc(N)n2)CC1 | Fibroblast | Population Fragmented Nuclei (%) | 15% |
| COc1cccc2c1c(NS(=O)(=O)c1ccc(Cl)s1)nn2Cc1cccc(CNC(=O)C(C)(C)O)c1 | Fibroblast | Population Fragmented Nuclei (%) | 16% |
| C[C@H](N)COC(=O)[C@@H](CCCCN)NC(=O)Cc1c(-c2ccc3ccccc3c2)[nH]c2c1ccc1ccccc12 | Fibroblast | Population Fragmented Nuclei (%) | 18% |
| CCCCC(=O)N(Cc1ccc(-c2ccccc2-c2nnn[nH]2)cc1)[C@H](C(=O)O)C(C)C | Fibroblast | Population Fragmented Nuclei (%) | 9% |

For every listed record, write down its Population Fragmented Nuclei (%).
1. N#Cc1c(Oc2cccc(OS(=O)(=O)CCCC(F)(F)F)c2)cccc1C(F)(F)F
2. Cc1c(CC(=O)O)c2cccnc2n1Cc1ccc(S(C)(=O)=O)cc1C(F)(F)F [FEVIPIPRANT]
3. Cc1noc(-c2ccc(-c3ccc(CC(=O)O)cc3)cc2)c1NC(=O)O[C@H](C)c1ccccc1Cl
4. O=C(NCCN1CCC(n2c(=O)[nH]c3cc(Cl)ccc32)CC1)c1ccc(F)cc1 [HALOPEMIDE]
5. Cc1cnc(-c2cc(N3CCN(C(=O)CCS(C)(=O)=O)CC3)ncc2Cl)c(C)c1
6. Br.CS(=O)(=O)Nc1c(O)ccc2c1CCCC2C1=NCCN1 (stereo not given)
7. CCCCC1=NC2(CCCC2)C(=O)N1Cc1ccc(-c2ccccc2-c2nnn[nH]2)cc1 [IRBESARTAN]

13%
22%
14%
11%
9%
9%
14%

These data points were gathered from ChEMBL document CHEMBL5058577.
